- Species on record: Rattus norvegicus
- experimental details: Open TG-GATES - Regimen: Daily Repeat
- Assay type: toxicity, organism-based, Sprague-Dawley
- Design: regimen Daily Repeat, gender Male, age 6 weeks
- condition context: in vivo, po, 0 mg/kg, 72 h, tissue Blood, route gavage, dose level Control, time 3 day
Mark Criterion met for reported APTT of 20 s or greater; mark Criterion not met for anything smaller.

* CCOC(=O)CCC(=O)O[C@H]1[C@H](O[C@@H]2[C@@H](C)[C@H](O[C@H]3C[C@@](C)(OC)[C@@H](O)[C@H](C)O3)[C@@H](C)C(=O)O[C@H](CC)[C@@](C)(O)[C@H](O)[C@@H](C)C(=O)[C@H](C)C[C@@]2(C)O)O[C@H](C)C[C@@H]1N(C)C [ERYTHROMYCIN ETHYLSUCCINATE] | Criterion met
* CC1=C(/C=C/C(C)=C/C=C/C(C)=C/CO)C(C)(C)CCC1 | Criterion met
* CN(C)CCCN1c2ccccc2CCc2ccccc21 | Criterion not met
* CCCNC(=O)NS(=O)(=O)c1ccc(Cl)cc1 [CHLORPROPAMIDE] | Criterion not met
* CN1C(=O)CN=C(c2ccccc2)c2cc(Cl)ccc21 | Criterion not met

In plain terms: is recorded APTT at least 20 s for CN(C)CCN(Cc1cccs1)c1ccccn1 ? Criterion met

In plain terms: is recorded APTT at least 20 s for CCOc1ccc(NC(=O)CC(C)O)cc1 (configuration not stated) ? Criterion not met

In plain terms: is recorded APTT at least 20 s for NNC(=O)c1ccncc1 ? Criterion not met

In plain terms: is recorded APTT at least 20 s for O=C(CCCN1CCC(O)(c2ccc(Cl)cc2)CC1)c1ccc(F)cc1 ? Criterion not met

---

- Organism: Rattus norvegicus
- experimental details: Open TG-GATES - Regimen: Single
- Assay type: toxicity, organism-based, Sprague-Dawley
- Design: regimen Single, gender Male, age 6 weeks
- condition context: in vivo, po, 10 mg/kg, 3 h, tissue Blood, route gavage, dose level Low
For each record, write down the corresponding MCV.
Numbers only, in fL.

Please review the entries below; each comes with its answer.
- CN(C)CCCN1c2ccccc2CCc2ccc(Cl)cc21: 63.9
- CC1=C(/C=C/C(C)=C/C=C/C(C)=C/CO)C(C)(C)CCC1: 62.2
- CN(C)CCN(Cc1cccs1)c1ccccn1: 64.6

Consider now this further molecule.
Record CN(C)CCCN1c2ccccc2CCc2ccccc21 . Reported MCV: 66.6

---

For each record, write down the corresponding Mono.
- Species on record: Rattus norvegicus
- experimental details: Open TG-GATES - Regimen: Single
- Format: toxicity, organism-based, Sprague-Dawley
- Design: regimen Single, gender Male, age 6 weeks
- condition context: in vivo, po, 100 mg/kg, 9 h, tissue Blood, route gavage, dose level High
Numbers only, in %.

- CN(C)CCN(Cc1cccs1)c1ccccn1: 3.6

Hi team, please reply with Mono for each item in this list.
1. CN(C)CCCN1c2ccccc2CCc2ccc(Cl)cc21
2. CN(C)CCCN1c2ccccc2CCc2ccccc21
3. CC1=C(/C=C/C(C)=C/C=C/C(C)=C/CO)C(C)(C)CCC1

[2, 2.4, 3.2]

---

- Organism: Rattus norvegicus
- experimental details: Open TG-GATES - Regimen: Single
- Assay type: toxicity, organism-based, Sprague-Dawley
- Parameters: regimen Single, gender Male, age 6 weeks
- condition context: in vivo, po, 300 mg/kg, 9 h, tissue Blood, route gavage, dose level Middle
For each record, write down the corresponding Neu.
Numbers only, in %.

- NC(N)=Nc1nc(CSCCC(N)=NS(N)(=O)=O)cs1 [FAMOTIDINE]: 19.2

Hi team, please reply with Neu for each item in this list.
1. COc1ccc2[nH]c([S+]([O-])Cc3ncc(C)c(OC)c3C)nc2c1 (centres undefined) [OMEPRAZOLE]
2. CCOC(=O)CCC(=O)O[C@H]1[C@H](O[C@@H]2[C@@H](C)[C@H](O[C@H]3C[C@@](C)(OC)[C@@H](O)[C@H](C)O3)[C@@H](C)C(=O)O[C@H](CC)[C@@](C)(O)[C@H](O)[C@@H](C)C(=O)[C@H](C)C[C@@]2(C)O)O[C@H](C)C[C@@H]1N(C)C [ERYTHROMYCIN ETHYLSUCCINATE]

1. 18.4
2. 15.8

Record COC1=CC(=O)C[C@@H](C)[C@]12Oc1c(Cl)c(OC)cc(OC)c1C2=O [GRISEOFULVIN] . Reported Neu: 17

---

- Species on record: Rattus norvegicus
- experimental details: Open TG-GATES - Regimen: Single
- Assay type: toxicity, organism-based, Sprague-Dawley
- Set-up: regimen Single, gender Male, age 6 weeks
- condition context: in vivo, po, 100 mg/kg, 3 h, tissue Blood, route gavage, dose level High
recorded metric: MCHC
Kindly write the number and append the unit.

- CN(C)CCN(Cc1cccs1)c1ccccn1: 32.9%
- CN(C)CCCN1c2ccccc2CCc2ccccc21: 32.8%
- CN(C)CCCN1c2ccccc2CCc2ccc(Cl)cc21: 32.6%

Record CC1=C(/C=C/C(C)=C/C=C/C(C)=C/CO)C(C)(C)CCC1 . Reported MCHC: 34.5%

---

- Species: Rattus norvegicus
- experimental details: Open TG-GATES - Regimen: Single
- Format: toxicity, organism-based, Sprague-Dawley
- Design: regimen Single, gender Male, age 6 weeks
- condition context: in vivo, po, 100 mg/kg, 9 h, tissue Blood, route gavage, dose level High
For each record, write down the corresponding WBC.
Give bare numbers, in x10_2/uL.

Please review the entries below; each comes with its answer.
• CC1=C(/C=C/C(C)=C/C=C/C(C)=C/CO)C(C)(C)CCC1 [RETINOL] = 96.3
• CN(C)CCN(Cc1cccs1)c1ccccn1 = 71.6
• CN(C)CCCN1c2ccccc2CCc2ccc(Cl)cc21 [CLOMIPRAMINE] = 72.8

Consider now this further compound.
Record CN(C)CCCN1c2ccccc2CCc2ccccc21 [IMIPRAMINE] . Reported WBC: 70.8

---

- Species on record: Rattus norvegicus
- experimental details: Open TG-GATES - Regimen: Single
- Format: toxicity, organism-based, Sprague-Dawley
- Parameters: regimen Single, gender Male, age 6 weeks
- condition context: in vivo, po, 30 mg/kg, 3 h, tissue Plasma, route gavage, dose level Middle
recorded metric: TC (mg/dL)
Answers are plain numbers, in mg/dL.

• CN(C)CCCN1c2ccccc2CCc2ccc(Cl)cc21 = 75.2
• CC1=C(/C=C/C(C)=C/C=C/C(C)=C/CO)C(C)(C)CCC1 = 83.2
• CN(C)CCCN1c2ccccc2CCc2ccccc21 = 79.2

Consider now this further compound.
Record CN(C)CCN(Cc1cccs1)c1ccccn1 . Reported TC: 75.4

---

- Species: Rattus norvegicus
- experimental details: Open TG-GATES - Regimen: Daily Repeat
- Assay type: toxicity, organism-based, Sprague-Dawley
- Parameters: regimen Daily Repeat, gender Male, age 6 weeks
- condition context: in vivo, po, 0 mg/kg, […], tissue Kidney, route gavage, dose level Control, time 7 day
recorded metric: KIDNEY_L (g)
One number for each entry, in g.

Please review the entries below; each comes with its answer.
• CCCNC(=O)NS(=O)(=O)c1ccc(Cl)cc1 [CHLORPROPAMIDE] = 1.1
• CC1=C(/C=C/C(C)=C/C=C/C(C)=C/CO)C(C)(C)CCC1 [RETINOL] = 1.1
• CCOc1ccc(NC(=O)CC(C)O)cc1 (stereo not drawn) [BUCETIN] = 1.2
• O=C(CCCN1CCC(O)(c2ccc(Cl)cc2)CC1)c1ccc(F)cc1 [HALOPERIDOL] = 1.1
• NNC(=O)c1ccncc1 [ISONIAZID] = 1.1

Hi team, please reply with KIDNEY_L for each item in this list.
1. COc1ccc2[nH]c([S+]([O-])Cc3ncc(C)c(OC)c3C)nc2c1 (stereo not drawn) [OMEPRAZOLE]
2. CN(C)CCN(Cc1cccs1)c1ccccn1

1.2
1

---

- Species: Rattus norvegicus
- experimental details: Open TG-GATES - Regimen: Single
- Type: toxicity, organism-based, Sprague-Dawley
- Parameters: regimen Single, gender Male, age 6 weeks
- condition context: in vivo, po, 0 mg/kg, 6 h, tissue Plasma, route gavage, dose level Control
recorded metric: ALT (IU/L)
Give bare numbers, in IU/L.

Please review the entries below; each comes with its answer.
• CN(C)CCCN1c2ccccc2CCc2ccccc21 [IMIPRAMINE] = 52.8
• CN(C)CCN(Cc1cccs1)c1ccccn1 = 37.4
• CN(C)CCCN1c2ccccc2CCc2ccc(Cl)cc21 [CLOMIPRAMINE] = 38.6
• CC(C)OC(=O)C(C)(C)Oc1ccc(C(=O)c2ccc(Cl)cc2)cc1 [FENOFIBRATE] = 41.8

Hi team, please reply with ALT for each item in this list.
1. CN1C(=O)CN=C(c2ccccc2)c2cc(Cl)ccc21 [DIAZEPAM]
2. COc1ccc2[nH]c([S+]([O-])Cc3ncc(C)c(OC)c3C)nc2c1 (stereo not drawn) [OMEPRAZOLE]
3. CCCNC(=O)NS(=O)(=O)c1ccc(Cl)cc1 [CHLORPROPAMIDE]
4. Cc1ccc(C)c(OCCCC(C)(C)C(=O)O)c1 [GEMFIBROZIL]
5. NNC(=O)c1ccncc1 [ISONIAZID]
6. CCOc1ccc(NC(=O)CC(C)O)cc1 (stereo not drawn) [BUCETIN]
7. O=C(CCCN1CCC(O)(c2ccc(Cl)cc2)CC1)c1ccc(F)cc1 [HALOPERIDOL]

1: 29.6; 2: 32.6; 3: 42.4; 4: 43; 5: 31.2; 6: 32.4; 7: 34.8

Hi team, please reply with ALT for each item in this list.
1. COC1=CC(=O)C[C@@H](C)[C@]12Oc1c(Cl)c(OC)cc(OC)c1C2=O [GRISEOFULVIN]
2. CC/C(=C(\c1ccccc1)c1ccc(OCCN(C)C)cc1)c1ccccc1 [TAMOXIFEN]
3. C[C@@H]1C[C@H]2[C@@H]3CCC4=CC(=O)C=C[C@]4(C)[C@@]3(F)[C@@H](O)C[C@]2(C)[C@@]1(O)C(=O)CO [DEXAMETHASONE]
4. NC(N)=Nc1nc(CSCCC(N)=NS(N)(=O)=O)cs1 [FAMOTIDINE]
5. COc1cc2c(c(OC)c1OC)-c1ccc(OC)c(=O)cc1[C@@H](NC(C)=O)CC2 [COLCHICINE]
6. CCOC(=O)CCC(=O)O[C@H]1[C@H](O[C@@H]2[C@@H](C)[C@H](O[C@H]3C[C@@](C)(OC)[C@@H](O)[C@H](C)O3)[C@@H](C)C(=O)O[C@H](CC)[C@@](C)(O)[C@H](O)[C@@H](C)C(=O)[C@H](C)C[C@@]2(C)O)O[C@H](C)C[C@@H]1N(C)C [ERYTHROMYCIN ETHYLSUCCINATE]
7. CC1=C(/C=C/C(C)=C/C=C/C(C)=C/CO)C(C)(C)CCC1 [RETINOL]

[34.6, 37.8, 34.2, 32.6, 27.6, 37.4, 36.8]
